# Tested on: rabbit red blood cells
# assay-name: Hemolytic activity
# Type: cell-based
# reported-conditions: 128 μg/mL
Where a SMILES comes first, the peptide text is derived from it. [ ]: non-standard residue; d: D form. The star is where a group is joined. Cha = N[C@@H](CC1CCCCC1)C(=O)O; Octanoyl = CCCCCCCC(=O)*; Dab = NCC[C@H](N)C(=O)O
readout-kind: hemolytic activity (in words)

1. CCCCCCCC(=O)N[C@@H](CCN)C(=O)N[C@H](C(=O)N[C@@H](CCN)C(=O)N[C@H](Cc1ccccc1)C(=O)N[C@@H](CC(C)C)C(=O)N[C@@H](CCN)C(=O)N[C@@H](C(=O)N[C@@H](CC(C)C)C(=O)N[C@@H](CCN)C(N)=O)C(C)C)[C@@H](C)CC [Analogue 9] (Octanoyl-[Dab]I[Dab][dF]L[Dab][dV]L[Dab]-NH2); non-hemolytic
2. CC[C@H](C)[C@H](NC(=O)[C@H](CCN)NC(=O)[C@@H](N)CC1CCCCC1)C(=O)N[C@@H](CCN)C(=O)N[C@H](Cc1ccccc1)C(=O)N[C@@H](CC(C)C)C(=O)N[C@@H](CCN)C(=O)N[C@@H](C(=O)N[C@@H](CC(C)C)C(=O)N[C@@H](CO)C(N)=O)C(C)C [Analogue 16] (H-[Cha][Dab]I[Dab][dF]L[Dab][dV]LS-NH2); non-hemolytic
